Molecular target: T1, human sclerostin, mature form (signal peptide removed) (human, UniProt Q9BQB4 24-213)
T1 construct: 190 amino acid glycoprotein; also called SOST; recombinant human sclerostin
T1 sequence: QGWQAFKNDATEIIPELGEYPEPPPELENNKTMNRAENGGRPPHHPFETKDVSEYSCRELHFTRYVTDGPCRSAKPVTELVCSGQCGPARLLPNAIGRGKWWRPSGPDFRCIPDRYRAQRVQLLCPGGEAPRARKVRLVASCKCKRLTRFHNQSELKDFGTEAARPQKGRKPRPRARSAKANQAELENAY
Experiment: Biacore cross-blocking on immobilised human sclerostin; RU of 1:1 mixture, competitor Ab-3
Parameter: binding (RU)

Binder	Observed Measurement
Antibody A (antibody, mouse IgG1, kappa, V domains shown, Rabbit-mouse chimeric antibody; mature chains (signal peptides cleaved off); also called Ab-A; Mab-A) VH: QSLEESGGRLVTPGTPLTLTCTASGFSLSSYWMNWVRQAPGEGLEWIGTIDSGGRTDYASWAKGRFTISRTSTTMDLKMTSLTTGDTARYFCARNWNLWGQGTLVTVSS VL: AQVLTQTPASVSAAVGGTVTINCQSSQSVYDNNWLAWFQQKPGQPPKLLIYDASDLASGVPSRFSGSGSGTQFTLTISGVQCADAATYYCQGAYNDVIYAFGGGTEVVVKR	946 RU
Antibody 4 (antibody, mouse IgG1, kappa, V domains shown, also called Ab-4) VH: EVQLQQSGPELMKPGASVKMSCKASGYTFTDYNMHWVKQNQGKTLEWIGEINPNSGGAGYNQKFKGKATLTVDKSSTTAYMELRSLTSEDSAVYYCARLGYDDIYDDWYFDVWGAGTTVTVSS VL: DIQMTQITSSLSASLGDRVSISCRASQDISNYLNWYQQKPDGTFKLLIFYTSRLLSGVPSRFSGSGSGTDYSLTIYNLEQEDFATYFCQQGDTLPYTFGGGTKLEIKR	869 RU
Antibody 19 (antibody, V domains shown, also called Ab-19) VH: EVQLQQSGPELVKPGASVKMSCKASGFTFTDYIMHWVKQKPGQGLEWIGYINPYNDDTEYNEKFKGKATLTSDKSSSTAYMDLSSLTSEGSAVYYCARSIYYYDAPFAYWGQGTLVTVSS VL: DIQMTQTTSSLSASLGDRVNISCRASQDISSYLNWYQQKPDGTVKLLIYSTSRLNSGVPSRFSGSGSGTDYSLTISNLAQEDIATYFCQQDIKHPTFGGGTKLELKR	892 RU
